Source: patent US20240309103A1

tgt: T1, human NPR1 on HEK293/hNPR1.myc.DDK cells (0 hANP) (human, UniProt P16066 33-1061)
T1 construct: Full-length receptor on engineered HEK293 cells, no ANP added; also called HEK293/hNPR1.myc.DKK
T1 sequence: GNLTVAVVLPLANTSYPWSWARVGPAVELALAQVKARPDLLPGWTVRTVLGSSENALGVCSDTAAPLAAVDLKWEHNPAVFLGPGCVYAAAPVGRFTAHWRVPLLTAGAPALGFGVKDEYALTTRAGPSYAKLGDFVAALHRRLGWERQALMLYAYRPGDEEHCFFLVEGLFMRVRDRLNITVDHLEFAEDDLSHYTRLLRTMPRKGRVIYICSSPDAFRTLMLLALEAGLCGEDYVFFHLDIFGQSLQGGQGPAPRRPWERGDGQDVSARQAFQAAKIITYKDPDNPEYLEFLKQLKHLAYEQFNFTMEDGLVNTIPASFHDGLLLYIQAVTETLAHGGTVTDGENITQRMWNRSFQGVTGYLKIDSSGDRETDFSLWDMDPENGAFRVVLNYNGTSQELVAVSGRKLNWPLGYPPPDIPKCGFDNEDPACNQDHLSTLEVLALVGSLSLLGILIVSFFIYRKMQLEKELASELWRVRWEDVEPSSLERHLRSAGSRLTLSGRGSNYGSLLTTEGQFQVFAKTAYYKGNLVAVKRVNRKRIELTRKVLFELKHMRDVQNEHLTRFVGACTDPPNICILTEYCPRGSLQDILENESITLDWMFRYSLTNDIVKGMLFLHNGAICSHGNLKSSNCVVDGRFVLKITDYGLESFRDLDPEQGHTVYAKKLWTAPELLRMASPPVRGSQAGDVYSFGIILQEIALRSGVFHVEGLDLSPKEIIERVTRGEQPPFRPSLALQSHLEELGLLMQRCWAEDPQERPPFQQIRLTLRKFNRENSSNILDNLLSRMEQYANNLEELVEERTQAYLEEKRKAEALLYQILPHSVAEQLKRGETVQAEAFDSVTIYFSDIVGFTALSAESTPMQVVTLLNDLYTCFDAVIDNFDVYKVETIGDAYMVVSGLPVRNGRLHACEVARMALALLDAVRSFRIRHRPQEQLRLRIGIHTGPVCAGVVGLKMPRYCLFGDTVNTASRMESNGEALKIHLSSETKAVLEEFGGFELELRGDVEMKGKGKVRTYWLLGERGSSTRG
assay explanation: ECL cell binding (MSD), 0 hANP
pEC50: −log10 of the molar value.
measured metric: pEC50

{"binder": "mAb25479 (antibody, human IgG4, V domains shown) VH: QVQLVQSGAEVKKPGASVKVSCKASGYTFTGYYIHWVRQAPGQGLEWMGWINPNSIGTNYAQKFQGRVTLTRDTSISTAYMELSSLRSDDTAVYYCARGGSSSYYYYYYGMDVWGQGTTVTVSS VL: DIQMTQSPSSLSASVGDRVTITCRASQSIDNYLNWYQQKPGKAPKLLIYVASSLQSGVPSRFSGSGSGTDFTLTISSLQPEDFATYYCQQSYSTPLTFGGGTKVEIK", "measured metric": "pEC50", "val": 8.77}
